Recorded values, source the MegaScale stability set (Tsuboyama et al. 2023).

B1: 2K2A (parent)
chain: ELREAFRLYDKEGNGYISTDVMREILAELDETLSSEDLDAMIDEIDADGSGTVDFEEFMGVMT

Variants of: B1
method.notes: folding stability dG (cDNA display proteolysis); higher = more stable
assay.conditions: PBS, room temperature

| mutant | folding stability dG |
| --- | --- |
| L33I | 1.36 kcal/mol |
| G13V | 0.792 kcal/mol |
| G51V | 0.029 kcal/mol |
| M59D | 0.144 kcal/mol |
| S35P | 2.06 kcal/mol |
| S34T | 2.12 kcal/mol |
| F6C | 1.79 kcal/mol |
| E31P | 2.61 kcal/mol |
| D39Y | 1.06 kcal/mol |
| G51I | 0.064 kcal/mol |
| G49M | 1.43 kcal/mol |
| D54R | 1.73 kcal/mol |
| T19E | 0.025 kcal/mol |
| E1W | 2.65 kcal/mol |
| A5S | 1.39 kcal/mol |
| G51Q | 1.01 kcal/mol |
| A40Y | 1.71 kcal/mol |
| E1P | 1.84 kcal/mol |
| G51E | 0.622 kcal/mol |
| N14Q | 1.53 kcal/mol |
| S50P | 0.13 kcal/mol |
| I45Y | 1.05 kcal/mol |
| E36W | 1.87 kcal/mol |
| M22F | 1.65 kcal/mol |
| M41H | 0.645 kcal/mol |
| V61N | 0.566 kcal/mol |
| E36S | 1.88 kcal/mol |
| E36A | 1.96 kcal/mol |
| I17C | 0.277 kcal/mol |
| Y9F | 1.59 kcal/mol |
| D10M | 1.39 kcal/mol |
| F55W | 1.75 kcal/mol |
| S50Y | 1.05 kcal/mol |
| E24N | 2.19 kcal/mol |
| A27F | 1.73 kcal/mol |
| T32M | 1.52 kcal/mol |
| A47F | 1.69 kcal/mol |
| E31H | 2.26 kcal/mol |
| V53H | 0.004 kcal/mol |
| D39H | 1.13 kcal/mol |
| R3H | 1.71 kcal/mol |
| K11P | 1.81 kcal/mol |
| M22C | 0.958 kcal/mol |
| V53F | 1.07 kcal/mol |
| E57N | 2 kcal/mol |
| D20W | 1.99 kcal/mol |
| I25T | -0.61 kcal/mol |
| E44H | 2.06 kcal/mol |
| F58Y | 1.6 kcal/mol |
| K11G | 1.03 kcal/mol |
| L8P | 0.853 kcal/mol |
| D43W | 2.16 kcal/mol |
| Y9D | 0.261 kcal/mol |
| E57S | 2.39 kcal/mol |
| G60M | 2.5 kcal/mol |
| E57A | 2.47 kcal/mol |
| E4G | 0.935 kcal/mol |
| E12W | 1.48 kcal/mol |
| D20R | 2.23 kcal/mol |
| I45N | -0.113 kcal/mol |
| A40H | 2.19 kcal/mol |
